Where do the numbers come from? From PubChem BioAssay (NCI).

tested on: SK-MEL-5 melanoma; assay: NCI-60 one-dose screen, 48 h (100 = growth as untreated, 0 = no growth, -100 = all killed); details: 10 µM unless noted
This is part of a sample that, as a whole, favours compounds with a hit. Of some 83,000 tested, about 20% had one in any assay. Calls of active or inactive are those of the source. The calls were made as follows: active = growth percent below 10; inactive = the rest.
Measured growth accompanies every entry in the list below.

> print(dat)
                                   molecule                     reading
1  O=C(Nc1ccc(Nc2ncccn2)cc1)NC1C=c2ccccc2=CC1 (stereo not given)            99.7% (inactive)
2  COc1ccc(C(=O)c2cc3c(N)c(C(=O)Nc4ccc(Br)cc4)sc3nc2C)cc1            81.5% (inactive)
3  O=[N+]([O-])c1cccc(-c2nc(-c3ccc(Cl)cc3Cl)cn2-c2ccccc2)c1            71.4% (inactive)
4  CNC(=O)c1c(NC(=O)c2ccc(C(C)C)cc2)sc2c(CN(C)C)c(O)ccc12              96% (inactive)
5  CCCCCCCCN1C(=O)/C(=c2\sc3n(c2=O)C2C(NN=3)N(CC)C(=O)N2CC)c2ccccc21 (stereo not given)            96.9% (inactive)
6                       Nc1cc(N)c2cccnc2c1O            62.9% (inactive)
7  Cc1cn(-c2cc(C(=O)Nc3cccc(C#Cc4cccc5[nH]nc(N)c45)c3)cc(C(F)(F)F)c2)cn1            24.2% (inactive)
8       C#Cc1cccc(NC(=O)Nc2cccc(N=C=S)c2)c1  95.7% [8.25 µM] (inactive)
9                   CCOC(=O)N1CCN(CCCCl)CC1             101% (inactive)

Here is the next item to consider.
Lookup: What value of growth has been reported for the following molecule? Cc1[nH]n(C(=O)c2ccncc2)c(=O)c1N=Nc1ccc(F)c(Cl)c1
Found: 107% (inactive)

----------
system: UO-31 renal; experiment: NCI-60 one-dose screen, 48 h; conditions: 10 µM unless noted
The panel holds about 83,000 compounds, 20% with a hit somewhere; the sample as a whole holds those more often. Activity calls are given as the source filed them. Rule for the calls: active = growth percent below 10; inactive = the rest.
Give one outcome, nothing more. List: active, inactive

> print(dat)
                              smiles.record  class.label
1  Cc1[nH]n(C(=O)c2ccncc2)c(=O)c1N=Nc1ccc(F)c(Cl)c1     inactive
2  COc1cc(-c2nc3sccn3c2-c2ccnc(NCCNS(=O)(=O)c3ccc(F)cc3)n2)ccc1F       active
3  Cc1c2c(cc[n+]1Cc1ccccc1)c1ccc(OCc3ccccc3)cc1n2Cc1ccccc1       active
4       COc1ccc(/C(=C\c2ccccc2)C(=O)O)cc1OC     inactive
5  O=C(OCc1nc2nc(Cl)nc(N3CCOCC3)c2[nH]1)n1ccnc1       active
6  O=S(=O)(NCCCNc1nccc(-c2c(-c3ccc(F)c(O)c3)nc3sccn23)n1)c1ccc(F)cc1       active
7  COc1ccc(NC(=O)c2sc3nc(C)c(C(=O)c4ccc(OC)cc4)cc3c2N)cc1     inactive
8  COc1cccc(NC(=O)c2cccc(-c3cc(=O)c4c(OC)c(OC)c(OC)cc4o3)c2)c1     inactive

Turning now to a further record.
Lookup: Kindly provide the recorded test outcome for the following compound: COc1ccc(NC(=O)c2sc3nc(C)c(C(=O)CCc4cccc(OC)c4)cc3c2N)cc1
Found: inactive
